molecular target: I50V/A71V mutant protease (Human immunodeficiency virus type 1 group M subtype B, UniProt P12497, A559V/I538V/Q495K); construct: the gene encoding the desired HIV-1 protease was subcloned into the heat-inducible pXC35 expression vector; made in house; assay: Ki assay (FRET enzyme inhibition), I50V/A71V protease; assay type: biochemical, HIV-1; settings: I50V/A71V drug-resistant protease variant
pKi: −log10 of the molar value.
measured_metric: pKi

- CCC(CC)CN(C[C@@H](O)[C@H](Cc1ccccc1)NC(=O)O[C@H]1CO[C@H]2OCC[C@H]21)S(=O)(=O)c1ccc(CO)cc1: 10.26
- CCC(CC)CN(C[C@@H](O)[C@H](Cc1ccccc1)NC(=O)O[C@H]1CO[C@H]2OCC[C@H]21)S(=O)(=O)c1ccc2c(c1)OCO2: 10.37
- CCC(CC)CN(C[C@@H](O)[C@H](Cc1ccccc1)NC(=O)O[C@H]1CO[C@H]2OCC[C@H]21)S(=O)(=O)c1ccc(OC)cc1: 10.74
